molecular target: human plasma kallikrein (Homo sapiens (Human), UniProt P03952); experiment: Plasma Kallikrein Activity Assay (chromogenic substrate S2302); settings: 2 nM kallikrein, 80 μM S2302, 30° C., pH 7.8; Cheng-Prusoff
Sequence (P03952 391-638): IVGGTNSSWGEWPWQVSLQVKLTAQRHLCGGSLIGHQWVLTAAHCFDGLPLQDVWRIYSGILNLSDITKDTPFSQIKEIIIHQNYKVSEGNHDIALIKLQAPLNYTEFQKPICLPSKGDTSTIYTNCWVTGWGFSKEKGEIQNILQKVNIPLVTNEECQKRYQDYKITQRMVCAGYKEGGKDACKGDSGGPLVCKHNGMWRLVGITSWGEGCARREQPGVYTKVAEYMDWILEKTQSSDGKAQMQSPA
Sequence (P03952 20-390 partner): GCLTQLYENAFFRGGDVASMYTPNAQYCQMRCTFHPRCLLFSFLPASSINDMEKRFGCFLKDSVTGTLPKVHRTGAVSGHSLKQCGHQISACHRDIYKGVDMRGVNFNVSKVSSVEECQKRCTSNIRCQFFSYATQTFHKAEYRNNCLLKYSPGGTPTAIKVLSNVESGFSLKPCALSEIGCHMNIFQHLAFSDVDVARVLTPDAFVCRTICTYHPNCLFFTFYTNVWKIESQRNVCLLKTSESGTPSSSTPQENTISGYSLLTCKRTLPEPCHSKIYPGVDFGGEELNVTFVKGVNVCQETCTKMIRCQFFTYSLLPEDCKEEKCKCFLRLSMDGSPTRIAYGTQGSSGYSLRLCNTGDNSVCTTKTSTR
List of Ki values.
observed.property: Ki

compound: CCNC(CCC1CC1)(c1ccncc1)c1ccc(F)c(NC(=O)[C@H]2C[C@@H](OC)CN2C(=O)Nc2ccc(Cl)cn2)c1 (stereo partly drawn) [Compound 77a]
measured.result: < 50 nM
--
compound: NC(CCC1CC1)(c1ccncc1)c1ccc(F)c(NC(=O)[C@H]2C[C@H]3C[C@H]3N2)c1 (stereo partly drawn) [Compound 80c]
measured.result: 50 to 100 nM
--
compound: CC(C)(C)[S@@+]([O-])NC(CCC1CC1)(c1cccc(C#N)c1)c1ccc(F)c(NC(=O)[C@H]2CCCN2C(=O)OCc2ccccc2)c1 (stereo partly drawn) [Compound 12b]
measured.result: > 100 nM

====

Reported Ki values for the following molecules.
molecular target: human plasma kallikrein (Homo sapiens (Human), UniProt P03952); assay: Plasma Kallikrein Activity Assay (chromogenic substrate S2302); conditions: 2 nM kallikrein, 80 μM S2302, 30° C., pH 7.8; Cheng-Prusoff

molecule: N#Cc1cccc(C(N)(CCC2CC2)c2ccc(F)c(NC(=O)[C@H]3C[C@@H](O)CN3C(=O)Nc3ccc(Cl)cn3)c2)c1 (stereo partly shown) [Compound 14h]
Ki: < 50 nM
//
molecule: N#Cc1cccc(C(N)(CCC2CC2)c2ccc(F)c(NC(=O)[C@H]3C[C@@H](O)CN3C(=O)Nc3ccc(N)cc3)c2)c1 (stereo partly shown) [Compound 28b]
Ki: > 100 nM
//
molecule: CO[C@@H]1C[C@H](C(=O)Nc2cc(C(N)(CCC3CC3)c3ccncc3)ccc2F)N(C(=O)c2ccc(Cl)c(N)c2)C1 (stereo partly shown) [Compound 84a]
Ki: > 100 nM
//
molecule: NC(CCC1CC1)(c1ccncc1)c1ccc(F)c(NC(=O)[C@H]2C[C@@H](O)CN2C(=O)Nc2ccc(Cl)cc2)c1 (stereo partly shown) [Compound 69a]
Ki: < 50 nM
//
molecule: NC(CCC1CC1)(c1ccncc1)c1ccc(F)c(NC(=O)[C@H]2C[C@](O)(c3ccccc3)CN2C(=O)Nc2ccc(Cl)cn2)c1 (stereo partly shown) [Compound 39h]
Ki: < 50 nM
//
molecule: CC(C)(C)[S@@+]([O-])NC(CCC1CC1)(c1cccc(C#N)c1)c1ccc(F)c(NC(=O)[C@H]2C[C@@H](O)CN2C(=O)Nc2ccc(C(F)(F)F)cc2)c1 (stereo partly shown) [Compound 27a]
Ki: > 100 nM
//
molecule: CO[C@@H]1C[C@@H](C(=O)Nc2cc(C(N)(CCC3CC3)c3cccc(C#N)c3)ccc2F)N(C(=O)N(C)c2ccc(Cl)cc2)C1 (stereo partly shown)
Ki: > 100 nM
//
molecule: N#Cc1cccc(C(N)(CCC2CC2)c2ccc(F)c(NC(=O)[C@@H]3CCCN3C(=O)Nc3ccc(Cl)cc3)c2)c1 (stereo partly shown)
Ki: > 100 nM
//
molecule: NC(CCC1CC1)(c1ccncc1)c1ccc(F)c(NC(=O)[C@H]2CC(F)(F)CN2C(=O)Nc2ccc(Cl)cn2)c1 (stereo partly shown) [Compound 53d]
Ki: < 50 nM
//
molecule: CCO[C@@H]1C[C@H](C(=O)Nc2cc(C(CCC3CC3)(NS(C)(=O)=O)c3ccncc3)ccc2F)N(C(=O)Nc2ccc(Cl)cn2)C1 (stereo partly shown) [Compound 55a]
Ki: < 50 nM
//
molecule: NC(CCC1CC1)(c1ccc(F)c(NC(=O)[C@H]2C[C@](O)(c3ccccc3)CN2C(=O)Nc2ccc(Cl)cc2)c1)c1ccccn1 (stereo partly shown) [Compound 31i]
Ki: < 50 nM
//
molecule: CO[C@H]1C[C@@H](C(=O)Nc2cc(C(N)(CCC3CC3)c3cccc(C#N)c3)ccc2F)N(C(=O)Nc2ccc(Cl)cc2)C1 (stereo partly shown) [Compound 11e]
Ki: > 100 nM
//
molecule: N#Cc1cccc(C(N)(CCC2CC2)c2ccc(F)c(NC(=O)[C@H]3C[C@@H](O)CN3C(=O)Nc3ccc(C(F)(F)F)cc3)c2)c1 (stereo partly shown) [Compound 27b]
Ki: > 100 nM

Cited source for all entries: patent US10562850B2
